Target: Cell-associated proTGFβ1 (hGARP-proTGFβ1 and hLRRC33-proTGFβ1)
Test: BLI (Octet)
List of Cell AVRG (average KD) values.
Enter your answer as a number in nM; do not include the unit.

input: Please supply the value of reported Cell AVRG (average KD) for the item Ab27 (antibody, V domains shown) VH: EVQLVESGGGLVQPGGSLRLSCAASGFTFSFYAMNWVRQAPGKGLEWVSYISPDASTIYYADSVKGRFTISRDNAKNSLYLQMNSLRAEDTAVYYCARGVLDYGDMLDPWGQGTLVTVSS VL: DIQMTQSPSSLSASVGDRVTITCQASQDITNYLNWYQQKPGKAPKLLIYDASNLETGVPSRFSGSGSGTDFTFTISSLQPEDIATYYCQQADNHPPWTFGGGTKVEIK
output: 0.361

input: Please supply the value of reported Cell AVRG (average KD) for the item Ab21 (antibody, V domains shown) VH: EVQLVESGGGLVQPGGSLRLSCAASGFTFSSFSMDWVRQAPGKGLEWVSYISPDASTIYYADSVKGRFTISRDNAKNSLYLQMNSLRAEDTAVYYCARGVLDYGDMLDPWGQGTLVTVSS VL: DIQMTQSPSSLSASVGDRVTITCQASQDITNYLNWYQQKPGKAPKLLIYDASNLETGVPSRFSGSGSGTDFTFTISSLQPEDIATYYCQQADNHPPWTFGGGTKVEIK
output: 0.644

input: Please supply the value of reported Cell AVRG (average KD) for the item Ab24 (antibody, V domains shown) VH: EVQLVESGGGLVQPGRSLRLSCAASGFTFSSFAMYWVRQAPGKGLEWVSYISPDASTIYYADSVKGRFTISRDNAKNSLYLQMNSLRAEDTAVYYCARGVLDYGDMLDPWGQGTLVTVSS VL: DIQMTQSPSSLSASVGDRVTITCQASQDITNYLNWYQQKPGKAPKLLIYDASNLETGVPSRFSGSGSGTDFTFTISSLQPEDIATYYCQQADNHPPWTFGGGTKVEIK
output: 0.537

input: Please supply the value of reported Cell AVRG (average KD) for the item Ab30 (antibody, V domains shown) VH: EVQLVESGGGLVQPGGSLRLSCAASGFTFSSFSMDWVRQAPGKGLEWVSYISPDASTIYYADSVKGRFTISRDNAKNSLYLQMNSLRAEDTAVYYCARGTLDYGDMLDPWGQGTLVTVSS VL: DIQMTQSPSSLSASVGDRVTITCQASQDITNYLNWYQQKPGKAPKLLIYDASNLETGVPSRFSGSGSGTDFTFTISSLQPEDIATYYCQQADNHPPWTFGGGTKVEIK
output: 0.684

input: Please supply the value of reported Cell AVRG (average KD) for the item Ab25 (antibody, V domains shown) VH: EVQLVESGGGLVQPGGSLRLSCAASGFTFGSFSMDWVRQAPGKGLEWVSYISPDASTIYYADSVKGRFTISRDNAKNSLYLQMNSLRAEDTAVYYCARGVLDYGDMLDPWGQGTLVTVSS VL: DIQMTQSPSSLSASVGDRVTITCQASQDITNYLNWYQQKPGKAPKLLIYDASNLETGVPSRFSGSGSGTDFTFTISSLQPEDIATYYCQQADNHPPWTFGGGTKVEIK
output: 0.449
